experiment: Plasma concentrations in mice following oral administration; settings: ICR, mouse, po, 10 mg/kg
testReadout: concentration at 1 h

Example cases with answers are listed next.
INSERT INTO measurements (smilesrepr, observedresult) VALUES
  ('Cc1c(NS(=O)(=O)c2ccc(-c3ccc4oc5c(c4c3)CNCC5)cc2)c(CCF)nn1C', '2480 ng/mL'),
  ('Cc1c(NS(=O)(=O)c2c(Cl)cc(-c3ccc4oc5c(c4c3)CNCC5)cc2Cl)c(CC(C)C)nn1C', '2970 ng/mL');

Give one value of concentration at 1 h per listed compound.
1. CCc1nn(C)c(C)c1NS(=O)(=O)c1c(Cl)cc(-c2ccc3sc4c(c3c2)CNCC4)cc1Cl
2. Cc1c(NS(=O)(=O)c2ccc(-c3ccc4sc5c(c4c3)CNCC5)cc2Cl)c(CCF)nn1C
3. Cc1c(NS(=O)(=O)c2c(Cl)cc(-c3ccc4oc5c(c4c3)CNCC5)cc2Cl)c(CC#N)nn1C

Result:
["2890 ng/mL", "2960 ng/mL", "2490 ng/mL"]

Give one value of concentration at 1 h per listed compound.
1. Cc1c(NS(=O)(=O)c2ccc(-c3ccc4sc5c(c4c3)CCNC5)cc2)c(CCF)nn1C
2. Cc1c(NS(=O)(=O)c2c(Cl)cc(-c3ccc4oc5c(c4c3)CNCC5)cc2Cl)c(CCF)nn1C

Result:
3630 ng/mL
5040 ng/mL

====

Provide the recorded concentration at 8 h for the entries that follow.
assay: Plasma concentrations in mice following oral administration; settings: ICR, mouse, po, 10 mg/kg
One number for each entry, in ng/mL.

INSERT INTO assay_data (smilesrepr, observedresult) VALUES
  ('Cc1c(NS(=O)(=O)c2c(Cl)cc(-c3ccc4sc5c(c4c3)CNCC5)cc2Cl)c(CC(F)(F)F)nn1C', 3000);

Give one value of concentration at 8 h per listed compound.
1. Cc1c(NS(=O)(=O)c2ccc(-c3ccc4oc5c(c4c3)CNCC5)cc2Cl)c(CC(F)(F)F)nn1C
2. Cc1c(NS(=O)(=O)c2ccc(-c3ccc4sc5c(c4c3)CNCC5)cc2Cl)c(CC(F)F)nn1C

Result:
1: 6730; 2: 149

====

biological target: UniProt P30419; experiment: Inhibitory activity on NMT1 enzyme catalysis (fluorescence intensity assay); assay type: biochemical
testReadout: pIC50
Give bare numbers, as −log10 of the molar value.

Example cases with answers are listed next.
INSERT INTO measurements (smilesrepr, observedresult) VALUES
  ('Cc1c(NS(=O)(=O)c2ccc(-c3ccc4sc5c(c4c3)CNCC5)cc2)c(CC(F)(F)F)nn1C', 8.57),
  ('Cc1c(NS(=O)(=O)c2c(Cl)cc(-c3ccc4sc5c(c4c3)CNCC5)cc2Cl)c(CC2CC2)nn1C', 8.45);

Consider the record given below.
Problem: What value of measured pIC50 is listed for Cc1c(NS(=O)(=O)c2c(Cl)cc(N3CCc4sc5c(c4C3)CNCC5)cc2Cl)c(CC(F)(F)F)nn1C ?
Result: 8.71

====

test: Plasma concentrations in mice following oral administration; conditions: ICR, mouse, po, 10 mg/kg
Decide using concentration at 8 h alone. Strictly below 900 ng/mL: Satisfied. Equal to or above 900 ng/mL: Not satisfied.

Solved entries (count: 6):
INSERT INTO assay_data (smilesrepr, qualitativelabel) VALUES
  ('Cc1c(NS(=O)(=O)c2ccc(-c3ccc4sc5c(c4c3)CNCC5)cc2Cl)c(CCF)nn1C', 'Satisfied'),
  ('Cc1c(NS(=O)(=O)c2c(Cl)cc(-c3ccc4sc5c(c4c3)CCNC5)cc2Cl)c(CC(C)C)nn1C', 'Not satisfied'),
  ('Cc1c(NS(=O)(=O)c2c(Cl)cc(-c3ccc4oc5c(c4c3)CNCC5)cc2Cl)c(CC#N)nn1C', 'Not satisfied'),
  ('Cc1c(NS(=O)(=O)c2ccc(-c3ccc4sc5c(c4c3)CCNC5)cc2)c(CCF)nn1C', 'Satisfied'),
  ('Cc1c(NS(=O)(=O)c2ccc(-c3ccc4oc5c(c4c3)CNCC5)cc2)c(CC(F)F)nn1C', 'Satisfied'),
  ('Cc1c(NS(=O)(=O)c2c(Cl)cc(-c3ccc4oc5c(c4c3)CNCC5)cc2Cl)c(CC(C)C)nn1C', 'Not satisfied');

Problem: Just wondering, is concentration at 8 h of Cc1nn(C)c(C)c1NS(=O)(=O)c1c(Cl)cc(-c2ccc3sc4c(c3c2)CNCC4)cc1Cl below 900 ng/mL?
Result: Satisfied

Problem: Just wondering, is concentration at 8 h of Cc1c(NS(=O)(=O)c2c(Cl)cc(-c3ccc4sc5c(c4c3)CNCC5)cc2Cl)c(CC(C)C)nn1C below 900 ng/mL?
Result: Not satisfied

====

Provide the recorded concentration at 1 h for the entries that follow.
test: Plasma concentrations in mice following oral administration; conditions: ICR, mouse, po, 10 mg/kg
One number for each entry, in ng/mL.

Example cases with answers are listed next.
INSERT INTO measurements (compound, testreadout, resultunit, observedresult) VALUES
  ('Cc1nn(C)c(C)c1NS(=O)(=O)c1c(Cl)cc(-c2ccc3sc4c(c3c2)CNCC4)cc1Cl [Compound 1]', 'concentration at 1 h', 'ng/mL', 1820),
  ('Cc1c(NS(=O)(=O)c2c(Cl)cc(-c3ccc4sc5c(c4c3)CNCC5)cc2Cl)c(CC(F)(F)F)nn1C [Compound 17]', 'concentration at 1 h', 'ng/mL', 5100),
  ('Cc1c(NS(=O)(=O)c2c(Cl)cc(-c3ccc4sc5c(c4c3)CNCC5)cc2Cl)c(CC(C)C)nn1C [Compound 3]', 'concentration at 1 h', 'ng/mL', 2410);

Consider the record given below.
Problem: What value of measured concentration at 1 h is listed for Cc1c(NS(=O)(=O)c2ccc(-c3ccc4oc5c(c4c3)CNCC5)cc2)c(CC(F)F)nn1C [Compound B64] ?
Result: 1660

====

Provide the recorded IC50 for the entries that follow.
Target: NMT1 enzyme (Homo sapiens)
Sequence (P30419 1-496): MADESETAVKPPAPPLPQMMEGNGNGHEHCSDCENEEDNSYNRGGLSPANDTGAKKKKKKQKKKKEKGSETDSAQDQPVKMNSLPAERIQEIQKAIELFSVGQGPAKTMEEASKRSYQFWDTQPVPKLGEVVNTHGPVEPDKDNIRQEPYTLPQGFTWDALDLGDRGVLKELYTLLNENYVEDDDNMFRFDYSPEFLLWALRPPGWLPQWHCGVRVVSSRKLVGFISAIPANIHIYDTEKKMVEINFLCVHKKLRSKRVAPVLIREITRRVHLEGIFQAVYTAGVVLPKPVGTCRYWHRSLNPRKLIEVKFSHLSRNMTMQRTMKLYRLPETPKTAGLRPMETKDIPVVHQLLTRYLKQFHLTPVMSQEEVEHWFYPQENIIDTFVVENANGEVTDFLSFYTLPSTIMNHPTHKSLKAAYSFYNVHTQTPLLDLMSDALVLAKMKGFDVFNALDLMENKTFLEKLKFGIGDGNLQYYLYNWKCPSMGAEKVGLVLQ
Assay: Inhibitory activity on NMT1 enzyme catalysis (fluorescence intensity assay)
Assay type: biochemical
Give bare numbers, in nM.

Example cases with answers are listed next.
INSERT INTO measurements (smilesrepr, observedresult) VALUES
  ('COCc1nn(C)c(C)c1NS(=O)(=O)c1c(Cl)cc(-c2ccc3sc4c(c3c2)CNCC4)cc1Cl', 4.73),
  ('Cc1c(NS(=O)(=O)c2c(Cl)cc(-c3ccc4c(c3)N3CCNC[C@@H]3CO4)cc2Cl)c(CC(C)C)nn1C', 7.95);

Give one value of IC50 per listed compound.
1. Cc1c(NS(=O)(=O)c2c(Cl)cc(-c3ccc4c(c3)N3CCNC[C@H]3CO4)cc2Cl)c(CC(C)C)nn1C
2. Cc1c(NS(=O)(=O)c2c(Cl)cc(-c3ccc4sc5c(c4c3)CNCC5)cc2Cl)c(CC#N)nn1C

Result:
[8.76, 3.21]

====

Target: UniProt:P30419
Sequence (P30419 1-496): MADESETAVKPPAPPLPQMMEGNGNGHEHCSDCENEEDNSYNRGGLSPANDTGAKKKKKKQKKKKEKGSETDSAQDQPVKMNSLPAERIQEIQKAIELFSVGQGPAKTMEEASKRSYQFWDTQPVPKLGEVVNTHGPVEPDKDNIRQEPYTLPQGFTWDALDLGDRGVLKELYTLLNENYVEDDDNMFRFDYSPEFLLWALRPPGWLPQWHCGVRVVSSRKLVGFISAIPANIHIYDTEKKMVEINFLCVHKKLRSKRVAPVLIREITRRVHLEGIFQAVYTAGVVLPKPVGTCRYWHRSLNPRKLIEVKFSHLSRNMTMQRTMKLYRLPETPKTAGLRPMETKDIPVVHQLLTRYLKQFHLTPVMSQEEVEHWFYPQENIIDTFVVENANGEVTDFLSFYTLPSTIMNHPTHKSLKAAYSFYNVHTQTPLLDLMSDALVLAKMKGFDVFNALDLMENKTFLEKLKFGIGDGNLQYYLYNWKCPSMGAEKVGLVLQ
Experiment: Inhibitory activity on NMT1 enzyme catalysis (fluorescence intensity assay)
Assay type: biochemical
Details: 6 nM NMT1 enzyme, 1.25 µM myristoyl-CoA, 20 µM HSPP60 SRC peptide, 45 minutes at 25 °C; read-out: NMT1 (IC50)
testReadout: IC50 (nM)
Give bare numbers, in nM.

Example cases with answers are listed next.
INSERT INTO measurements (smilesrepr, studytarget, observedresult) VALUES
  ('Cc1c(NS(=O)(=O)c2ccc(-c3ccc4sc5c(c4c3)CCNC5)cc2)c(CCF)nn1C', 'UniProt:P30419', 3.88),
  ('Cc1c(NS(=O)(=O)c2ccc(-c3ccc4sc5c(c4c3)CNCC5)cc2)c(CCF)nn1C', 'UniProt:P30419', 2.51),
  ('Cc1c(NS(=O)(=O)c2c(Cl)cc(N3CCc4oc5c(c4C3)CCNC5)cc2Cl)c(CC(F)F)nn1C', 'UniProt:P30419', 2.08);

Problem: What value of measured IC50 is listed for Cc1c(NS(=O)(=O)c2ccc(-c3ccc4oc5c(c4c3)CNCC5)cc2Cl)c(CC2CC2)nn1C ?
Result: 3.6
